Please respond with reported IC50 for every item in the list.
assay system: Ubiquitin-conjugating enzyme E2 N (Homo sapiens, UniProt P61088)
Sequence (P61088 whole entry): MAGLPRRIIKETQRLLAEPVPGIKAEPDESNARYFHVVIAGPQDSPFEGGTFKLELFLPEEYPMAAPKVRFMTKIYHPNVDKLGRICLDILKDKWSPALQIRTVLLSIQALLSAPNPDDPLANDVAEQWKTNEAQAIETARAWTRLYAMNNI
assay comment: Inhibition of UBE2N (unknown origin)
One number for each entry, in µM.

compound	reading unit	val
CC1=CC(C)(C)[C@@H](/C=C\[C@@H](C)[C@H]2CC[C@H]3[C@@H]4C[C@H](OS(=O)(=O)O)[C@H]5C[C@H](O)[C@@H](OS(=O)(=O)O)C[C@]5(C)[C@H]4CC[C@]23C)[C@H]1CC[C@@H](C)[C@H]1CC[C@H]2[C@@H]3C[C@H](OS(=O)(=O)O)[C@H]4C[C@H](OS(=O)(=O)O)[C@@H](OS(=O)(=O)O)C[C@]4(C)[C@H]3CC[C@]12C [MANADOSTEROL A]	µM	0.09
COC(=O)c1cc2c(cn1)[nH]c1ccc(O)cc12	µM	16

Incoming: Consider the compound shown here: C=C1CC(C)(C)[C@@H](/C=C\[C@@H](C)[C@H]2CC[C@H]3[C@@H]4C[C@H](OS(=O)(=O)O)[C@H]5C[C@@H](O)CC[C@]5(C)[C@H]4CC[C@]23C)[C@H]1CC(O)[C@@H](C)[C@H]1CC[C@H]2[C@@H]3C[C@H](OS(=O)(=O)O)[C@H]4C[C@H](OS(=O)(=O)O)[C@@H](OS(=O)(=O)O)C[C@]4(C)[C@H]3CC[C@]12C (stereo partly drawn) What is its recorded IC50?
Outgoing: 0.13

These data points were gathered from ChEMBL document CHEMBL6096707.
